Reference source for all entries: PubChem BioAssay (NCI)

- test_method_notes: NCI Yeast Anticancer Drug Screen. Data for the mec2-1 strain (AID 157)
- recorded_conditions: S. cerevisiae mec2-1 strain, at 50.0 µM, active compounds read high
About 79,000 compounds went through this panel and 15% of them were active in at least one assay; those are over-represented in the sample as a whole.
Below is a list of entries, each paired with its recorded growth inhibition value.

{"compound": "CCCCCCCCC(Nc1ccccc1)C(O)CCCCCCCC(=O)O (stereo not given) (tested in a mixture with another compound)", "units_symbol": "%", "growth inhibition": 1.8}
{"compound": "CC(=O)N(C(C)=O)n1c(Cc2ccc(Cl)cc2)nn(C(C)=O)c1=O", "units_symbol": "%", "growth inhibition": -15.1}
{"compound": "Cc1ccccc1NC(=O)C(=O)C(C#N)c1ccc(Cl)cc1Cl (stereo not given)", "units_symbol": "%", "growth inhibition": 6}
{"compound": "FC(F)(F)c1ccc2c(c1)N(CCCN1CCN(CCN3CCCCC3)CC1)c1ccccc1S2", "units_symbol": "%", "growth inhibition": 46}
{"compound": "N#Cc1nc(CC(=O)c2ccncc2)c(CC(=O)c2ccncc2)nc1C#N", "units_symbol": "%", "growth inhibition": 11.9}
